Tested on: U266 (MM)
test.description: 48 hr cytotoxicity, U266
Format: cell-based, human
quantity.name: pIC50
Scale note: pIC50 = -log10(concentration in M).

The compound listed as C=CC(=O)C1(C)CCCC2(C)C3=CCC(C)(C=C)C[C@@H]3CC[C@H]12 (stereo in doubt) shows pIC50 equal to 5.15
